System: transactivating tegument protein VP16 (Human herpesvirus 1), Gal4-VP16 luciferase reporter
method_description: VP16 transactivation inhibitors, counter-screen for SRC3 inhibitor project, cell-based, luminescence, high throughput (AID 588794)
cond: mammalian cells, VP16-driven luciferase reporter luminescence; at 3.6 µM; hits give high values
Calls of active or inactive are those of the source. Rule as the data show it: active = inhibition above about 30%; inactive = the rest.
readout_kind: inhibition

- compound: "CN(C)C=Nc1ncc2c3ccccc3n(CCN(C)C)c2c1C#N"
  inhibition: "29.9% (active)"
- compound: "Oc1ccc2ccccc2c1N=Nc1nccs1"
  inhibition: "46.5% (active)"
- compound: "Oc1c(CN2CCN(c3ccc(F)cc3)CC2)cc(Cl)c2cccnc12"
  inhibition: "42.8% (active)"
- compound: "Nc1ncc([N+](=O)[O-])c(N2CCCCCC2)n1"
  inhibition: "50.2% (active)"

Qu. For the compound "NC(=S)NN=Cc1cc(-c2cccc(N)c2)ccn1" , what inhibition is on record?
Ans. 53% (active)

###

System: transactivating tegument protein VP16 (Human herpesvirus 1), Gal4-VP16 luciferase reporter
method_description: VP16 transactivation inhibitors, counter-screen for SRC3 inhibitor project, cell-based, luminescence, high throughput (AID 588794)
cond: mammalian cells, VP16-driven luciferase reporter luminescence; at 3.6 µM
Activity calls are given as the source filed them. No stated cut-off is given here; in the data, active means inhibition above about 30%; inactive means the rest.
Thanks in advance; please answer with one of these: true (1) for active, false (0) for inactive

Example cases with answers are listed next.
- given_smiles: "Cc1ccc(Cl)cc1N(Cc1ccc(C(=O)NCc2cccnc2)cc1)S(=O)(=O)c1ccccc1"
  class_assignment: "false (0)"
- given_smiles: "C[C@H]1O[C@@H](O[C@H]2[C@@H](O)C[C@H](O[C@H]3[C@@H](O)C[C@H](O[C@H]4CC[C@@]5(C)[C@H](CC[C@@H]6[C@@H]5C[C@@H](O)[C@]5(C)[C@@H](C7=CC(=O)OC7)CC[C@]65O)C4)O[C@@H]3C)O[C@@H]2C)C[C@H](O)[C@@H]1O"
  class_assignment: "true (1)"

Attention now turns to another entry.
Qu. Hi team, can someone confirm the assay call for "Nc1nc(=S)c2ncn([C@@H]3O[C@H](CO)[C@@H](O)[C@H]3O)c2[nH]1" ?
Ans. false (0)

###

tested_on: Steroidogenic factor 1 (Homo sapiens) (UniProt Q13285)
Sequence (Q13285 whole entry, looked up): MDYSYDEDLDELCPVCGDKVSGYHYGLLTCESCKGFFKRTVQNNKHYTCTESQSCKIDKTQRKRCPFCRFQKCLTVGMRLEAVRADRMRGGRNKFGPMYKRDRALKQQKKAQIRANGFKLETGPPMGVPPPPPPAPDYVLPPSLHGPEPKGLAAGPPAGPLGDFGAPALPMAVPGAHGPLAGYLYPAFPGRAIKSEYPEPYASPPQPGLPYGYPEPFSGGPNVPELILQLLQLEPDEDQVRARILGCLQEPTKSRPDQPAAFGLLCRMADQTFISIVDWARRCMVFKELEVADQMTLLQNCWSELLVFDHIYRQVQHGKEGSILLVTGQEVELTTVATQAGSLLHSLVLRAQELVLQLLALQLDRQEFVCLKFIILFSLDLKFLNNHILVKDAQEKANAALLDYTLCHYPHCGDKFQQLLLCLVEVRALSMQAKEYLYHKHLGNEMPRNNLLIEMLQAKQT
method_description: SF1 (NR5A1) inverse agonists, counter-screen for LRH-1 inverse agonist project, cell-based, luminescence, high throughput (AID 651614);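 also: cells cotransfected with StAR promoter reporter and SF1 expression vector; 0% = vehicle on cells with receptor and 100% = vehicle on cells lacking receptor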
cond: cell-based SF1 luciferase reporter, at 3.6 µM
Calls of active or inactive are those of the source. No stated cut-off is given here; in the data, active means inhibition above about 44%; inactive means the rest.
Thanks in advance; please answer with one of these: active, inactive

- molecule: "COc1ccc(NC(=O)COC(=O)c2c(-c3ccccc3)noc2C)cc1"
  class_assignment: "active"
- molecule: "Cc1cc2oc(=O)cc(-c3ccccc3)c2c(C)c1-c1ccc(C#N)cc1"
  class_assignment: "active"
- molecule: "Oc1ccccc1N=Nc1nc(-c2ccccc2)c(-c2ccccc2)[nH]1"
  class_assignment: "active"
- molecule: "O=C(COc1ccc2ccc(=O)oc2c1)Nc1ccc(N2CCOCC2)cc1"
  class_assignment: "active"
- molecule: "COc1cccc2sc(N3CCN(C(=O)c4ccc([N+](=O)[O-])o4)CC3)nc12"
  class_assignment: "active"

Attention now turns to another entry.
Qu. Hi team, can someone confirm the assay call for "O=C1c2c(O)ccc(O)c2C(=O)c2c(NCCNCCO)ccc(NCCNCCO)c21" ?
Ans. active

###

tested_on: Nuclear receptor subfamily 5 group A member 2 (Homo sapiens) (UniProt O00482)
Sequence (O00482 whole entry, looked up): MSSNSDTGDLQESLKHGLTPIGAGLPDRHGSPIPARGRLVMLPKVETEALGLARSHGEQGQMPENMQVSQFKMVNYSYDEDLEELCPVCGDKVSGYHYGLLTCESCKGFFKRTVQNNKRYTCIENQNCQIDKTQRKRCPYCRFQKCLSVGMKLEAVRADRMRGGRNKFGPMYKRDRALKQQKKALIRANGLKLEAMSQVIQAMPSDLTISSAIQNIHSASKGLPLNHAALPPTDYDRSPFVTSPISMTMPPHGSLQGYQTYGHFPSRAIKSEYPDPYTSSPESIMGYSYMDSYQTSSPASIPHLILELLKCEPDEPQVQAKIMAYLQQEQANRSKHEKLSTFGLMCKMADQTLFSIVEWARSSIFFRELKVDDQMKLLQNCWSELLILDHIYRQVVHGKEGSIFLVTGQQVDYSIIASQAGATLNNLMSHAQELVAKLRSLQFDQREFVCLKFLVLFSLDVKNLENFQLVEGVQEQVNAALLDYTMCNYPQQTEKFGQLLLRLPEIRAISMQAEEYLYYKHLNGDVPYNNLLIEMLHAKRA
method_description: LRH-1 (NR5A2) inverse agonists, retest, confirmation, cell-based, luminescence (AID 651613);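 also: HEK293T cells co-transfected with LRH-1 and StAR promoter luciferase reporter; 0% = vehicle wells and 100% = parental cells lacking receptor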
cond: cell-based LRH-1 luciferase reporter, inverse agonism; at 3.6 µM
Active and inactive are the calls of the source. No stated cut-off is given here; in the data, active means inhibition above about 42%; inactive means the rest.
Thanks in advance; please answer with one of these: true for active, false for inactive

Example cases with answers are listed next.
- compound: "COc1cc(C2c3cc4c(cc3OC(Nc3ccc(C(=O)O)cc3)C2C)OCO4)cc(OC)c1OC (configuration not stated)"
  tested_on: "Nuclear receptor subfamily 5 group A member 2 (Homo sapiens) (UniProt O00482)"
  class_assignment: "true"
- compound: "Cc1ccccc1C(=O)N1CCN(c2ccc(NC(=O)c3ccc([N+](=O)[O-])o3)cc2)CC1"
  tested_on: "Nuclear receptor subfamily 5 group A member 2 (Homo sapiens) (UniProt O00482)"
  class_assignment: "true"
- compound: "O=C(COc1cccc2c1CCNC2=O)Nc1cccc(C(F)(F)F)c1"
  tested_on: "Nuclear receptor subfamily 5 group A member 2 (Homo sapiens) (UniProt O00482)"
  class_assignment: "true"
- compound: "COc1ccccc1OCc1nnc(SCC(=O)Nc2ccc(N3CCOCC3)cc2)n1C"
  tested_on: "Nuclear receptor subfamily 5 group A member 2 (Homo sapiens) (UniProt O00482)"
  class_assignment: "false"
- compound: "O=C(Nc1ccc(Br)cn1)C1CCN(S(=O)(=O)c2cccs2)CC1"
  tested_on: "Nuclear receptor subfamily 5 group A member 2 (Homo sapiens) (UniProt O00482)"
  class_assignment: "true"
- compound: "COc1ccc(/C=N/n2c(SC)nnc2-c2ccccc2)c(OC)c1OC"
  tested_on: "Nuclear receptor subfamily 5 group A member 2 (Homo sapiens) (UniProt O00482)"
  class_assignment: "true"
- compound: "NC(=O)c1ccc(NC(=O)COC(=O)C2COc3ccccc3O2)cc1 (configuration not stated)"
  tested_on: "Nuclear receptor subfamily 5 group A member 2 (Homo sapiens) (UniProt O00482)"
  class_assignment: "true"
- compound: "O=C1C=C(NCc2ccco2)C2(CCCCC2)O1"
  tested_on: "Nuclear receptor subfamily 5 group A member 2 (Homo sapiens) (UniProt O00482)"
  class_assignment: "true"
- compound: "O=C(NCc1cccc(C(F)(F)F)c1)c1cccc(Cl)c1Cl"
  tested_on: "Nuclear receptor subfamily 5 group A member 2 (Homo sapiens) (UniProt O00482)"
  class_assignment: "true"
- compound: "CCOC(=O)CCCc1ccc(/C(C)=N/NC(N)=S)cc1"
  tested_on: "Nuclear receptor subfamily 5 group A member 2 (Homo sapiens) (UniProt O00482)"
  class_assignment: "true"

Qu. Hi team, can someone confirm the assay call for CCOc1ccc(Br)cc1C1=NN(C(C)=O)C(c2ccc([N+](=O)[O-])s2)O1 (configuration not stated) ?
Ans. true

Qu. One more compound: "Cc1ccc(-n2nc(C)c(NC(=O)CCl)c2C)cc1"
Ans. true

Qu. One more compound: "COc1ccc2nc(N3CCN(C(=O)c4ccc([N+](=O)[O-])o4)CC3)sc2c1"
Ans. true

###

# reported inhibition; entries follow
method_description: VP16 transactivation inhibitors, counter-screen for SRC1 inhibitor project, cell-based, luminescence, high throughput (AID 588824)
cond: cell-based VP16 transactivation luciferase luminescence; at 3.6 µM; hits give high values
Provide only the numeric value, understood in %.

- compound: "CC(C)=CC(O)C/C(C)=C/COc1ccc2ccc(=O)oc2c1 (stereo unspecified)"
  readout_kind: "inhibition"
  observed_measurement: 40.6
- compound: "Cc1ccc2ccc3cccnc3c2n1"
  readout_kind: "inhibition"
  observed_measurement: 24.6
- compound: "CCN1CCS/C1=C/C=C/C1=[N+](CC)CCS1"
  readout_kind: "inhibition"
  observed_measurement: 47
- compound: "COc1ccc2nc(N3CCN(C(=O)c4ccc5ncsc5c4)CC3)sc2c1"
  readout_kind: "inhibition"
  observed_measurement: -0.4
- compound: "Cc1ccc(S(=O)(=O)N2CCN(C(=O)c3ccc(S(=O)(=O)N4CCCC4)cc3)CC2)cc1"
  readout_kind: "inhibition"
  observed_measurement: 9

Qu. For the compound "Cc1cc(OCc2nc(N)nc(N)c2-c2ccc(Cl)c(Cl)c2)ccc1[N+](=O)[O-]" , what inhibition is on record?
Ans. 30.1

###

tested_on: Nuclear receptor coactivator 3 (Homo sapiens) (UniProt Q9Y6Q9)
Sequence (Q9Y6Q9 whole entry, looked up): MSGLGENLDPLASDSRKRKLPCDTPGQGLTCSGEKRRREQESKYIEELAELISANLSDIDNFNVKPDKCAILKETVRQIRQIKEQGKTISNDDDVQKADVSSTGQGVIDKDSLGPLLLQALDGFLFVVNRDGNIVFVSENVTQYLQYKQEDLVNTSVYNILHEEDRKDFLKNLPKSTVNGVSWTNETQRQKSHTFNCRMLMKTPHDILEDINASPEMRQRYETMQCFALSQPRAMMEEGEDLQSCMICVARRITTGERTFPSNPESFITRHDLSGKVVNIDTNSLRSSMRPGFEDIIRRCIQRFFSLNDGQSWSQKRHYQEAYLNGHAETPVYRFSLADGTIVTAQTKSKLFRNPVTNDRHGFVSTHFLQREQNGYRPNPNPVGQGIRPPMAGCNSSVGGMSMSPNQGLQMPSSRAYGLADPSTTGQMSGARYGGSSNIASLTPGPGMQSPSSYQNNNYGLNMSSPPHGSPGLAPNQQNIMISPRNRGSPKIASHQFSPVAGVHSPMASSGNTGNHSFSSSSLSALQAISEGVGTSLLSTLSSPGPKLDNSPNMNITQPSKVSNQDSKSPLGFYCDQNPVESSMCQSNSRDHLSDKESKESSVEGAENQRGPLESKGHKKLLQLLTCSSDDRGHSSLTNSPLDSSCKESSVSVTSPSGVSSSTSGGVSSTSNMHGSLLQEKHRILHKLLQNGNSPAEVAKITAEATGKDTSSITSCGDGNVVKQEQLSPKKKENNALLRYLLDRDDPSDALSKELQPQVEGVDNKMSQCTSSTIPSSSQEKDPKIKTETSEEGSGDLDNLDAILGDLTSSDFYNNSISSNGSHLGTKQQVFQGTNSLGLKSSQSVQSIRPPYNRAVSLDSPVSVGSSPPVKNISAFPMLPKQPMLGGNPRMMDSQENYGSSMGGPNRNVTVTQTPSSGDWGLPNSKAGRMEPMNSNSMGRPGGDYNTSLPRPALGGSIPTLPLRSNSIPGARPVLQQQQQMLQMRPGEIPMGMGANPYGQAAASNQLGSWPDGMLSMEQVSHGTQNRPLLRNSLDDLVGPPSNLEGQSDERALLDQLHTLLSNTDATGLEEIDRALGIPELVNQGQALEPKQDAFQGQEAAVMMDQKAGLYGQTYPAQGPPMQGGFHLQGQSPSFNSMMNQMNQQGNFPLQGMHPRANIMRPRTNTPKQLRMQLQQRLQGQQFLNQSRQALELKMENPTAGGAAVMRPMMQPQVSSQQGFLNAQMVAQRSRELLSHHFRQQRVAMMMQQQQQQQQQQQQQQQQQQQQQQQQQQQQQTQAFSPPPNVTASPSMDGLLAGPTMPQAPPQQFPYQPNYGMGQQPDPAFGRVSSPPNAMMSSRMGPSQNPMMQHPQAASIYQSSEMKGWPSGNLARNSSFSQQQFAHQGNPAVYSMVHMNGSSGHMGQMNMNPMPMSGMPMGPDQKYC
method_description: SRC3 coactivator transcriptional activity inhibitors, confirmation, cell-based, luminescence, quadruplicate (AID 588792);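 also: 0% = DMSO treated cells and 100% = gossypol at 36 µM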
cond: HEK293 GAL4-SRC3 luciferase reporter, at 3.6 µM
Calls of active or inactive are those of the source.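 The calls were made as follows: active = mean inhibition over 43.08%, the solvent-only control mean plus 3 SD; inactive = the rest.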
Thanks in advance; please answer with one of these: 1 for active, 0 for inactive

Example cases with answers are listed next.
- compound: "CCc1nc2ccccc2c(C(=O)OCC(=O)Nc2cccc(S(=O)(=O)N3CCOCC3)c2)c1C"
  class_assignment: 0
- compound: "Cc1sc2ncnc(N3CCC(C(=O)Nc4ccccc4C(C)(C)C)CC3)c2c1C"
  class_assignment: 0
- compound: "Cc1ccc(-c2c[n+](Cc3cccc(Cl)c3)c3n2CCC3)cc1"
  class_assignment: 0

Qu. Hi team, can someone confirm the assay call for "Cc1cc(C)nc(NC(=O)c2ccc(COc3ccccc3Cl)cc2)c1" ?
Ans. 0

Qu. One more compound: "Cc1ccc(S(=O)(=O)N2CCN(S(C)(=O)=O)CC2)cc1"
Ans. 0

Qu. One more compound: CC(=O)c1c(O)cc2c3c1OC(C)(C)C1CCC(C)(CC31)O2 (stereo not drawn)
Ans. 1

Qu. One more compound: "CC(C)(C)C(=O)Nc1ccc(NC(=O)c2ccco2)nc1"
Ans. 1

Qu. One more compound: "CC(C)(C)OC(=O)NCc1ccc(CNC(=O)c2[nH]cnc2C(=O)NC2CCN(C(=O)OC(C)(C)C)CC2)cc1"
Ans. 0

Qu. One more compound: O=C(OC1C2CCC1C1CN(CCc3ccccc3)CC12)c1ccccc1 (stereo not drawn)
Ans. 0

Qu. One more compound: "CC(=O)c1c(C)[nH]c(C(=O)CSc2nc3ccccc3n2C)c1C"
Ans. 0
